Target: T1, 4H2898-AA
T1 chain: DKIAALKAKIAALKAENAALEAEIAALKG
Experiment: two-hybrid library CCmax;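 also: natural log of median RNA to DNA barcode read ratio; higher means stronger binding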
Settings: mean of both orientations
readout.kind: interaction score
Number only, please.

Recorded interaction score, per entry:
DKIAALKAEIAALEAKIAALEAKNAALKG [4H2600-AA]; 0.0245
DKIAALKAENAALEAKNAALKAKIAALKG [4H2750-AA]; 1.97
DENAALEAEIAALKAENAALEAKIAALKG [4H1110-AA]; 1.96
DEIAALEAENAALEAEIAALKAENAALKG [4H140-AA]; -0.325
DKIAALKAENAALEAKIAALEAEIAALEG [4H2721-AA]; 0.892
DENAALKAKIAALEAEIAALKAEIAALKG [4H1802-AA]; -1.81
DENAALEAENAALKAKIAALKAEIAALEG [4H1257-AA]; -1.42

Now for the binder whose interaction score we want.
Item under review: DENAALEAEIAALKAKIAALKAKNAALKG [4H1136-AA] . Reported interaction score? -0.29
